Assay Explanation: acute oral toxicity (LD50)
Test Parameters: in vivo
Readout Kind: LD50

Exercise: Given O=c1c2ccccc2nc([S+]([O-])Cc2ccccn2)n1-c1ccccc1 (stereo not shown) , state its recorded LD50.
Key: > 3000 mg/kg

* * *

Test system: indomethacin induced ulcer
Assay Explanation: antiulcer activity: suppression of indomethacin induced ulcer in mice
Format: in vivo, ddY series male mice
Test Parameters: po; mouse, 100 mg/kg p.o. 30 min before 20 mg/kg indomethacin; ulcer index 4 h later, vs control group; read-out: Suppression rate of indomethacin induced ulcer, 100 mg/kg, p.o.
Could you please report measured inhibition in vivo at 100 mg/kg for the items listed next?
Answers are plain numbers, in %.

Compound: Cc1ccc(-n2c([S+]([O-])Cc3ccccn3)nc3ccccc3c2=O)cc1 (stereo not shown)
Number: 73

Compound: CC(C)Cn1c([S+]([O-])Cc2ccccn2)nc2ccccc2c1=O (stereo not shown)
Number: 40

Compound: COc1ccc(-n2c([S+]([O-])Cc3nccc(OC)c3C)nc3ccc(C)cc3c2=O)cc1 (stereo not shown)
Number: 51

Compound: COc1cc(C[S+]([O-])c2nc3ccccc3c(=O)n2-c2ccccc2)ncc1C (stereo not shown)
Number: 82

Compound: O=c1c2ccccc2nc([S+]([O-])Cc2ccnc3ccccc23)n1-c1ccccc1 (stereo not shown)
Number: 64

Compound: COc1ccc(-n2c([S+]([O-])Cc3ccccn3)nc3ccccc3c2=O)cc1 (stereo not shown)
Number: 72

Compound: O=c1c2ccccc2nc([S+]([O-])Cc2ccccn2)n1-c1ccccc1Cl (stereo not shown)
Number: 56

Compound: COc1cccc(-n2c([S+]([O-])Cc3ccccn3)nc3ccccc3c2=O)c1 (stereo not shown)
Number: 73

Compound: Cc1ccc2nc([S+]([O-])Cc3ccccn3)n(-c3ccccc3)c(=O)c2c1 (stereo not shown)
Number: 56

Compound: O=c1c2ccccc2nc([S+]([O-])Cc2ccccn2)n1-c1ccccc1 (stereo not shown)
Number: 83

Provide the reported inhibition in vivo at 100 mg/kg of each entry below, same order.
1. O=c1c2ccccc2nc([S+]([O-])Cc2ccccn2)n1-c1cccc2ccccc12 (stereo not shown)
2. O=c1c2ccccc2nc([S+]([O-])Cc2ccncc2)n1-c1ccccc1 (stereo not shown)
3. O=c1c2ccccc2nc([S+]([O-])Cc2cccnc2)n1-c1ccccc1 (stereo not shown)
4. Cc1cccc2nc([S+]([O-])Cc3ccccn3)n(-c3ccccc3)c(=O)c12 (stereo not shown)
5. Cc1ccnc(C[S+]([O-])c2nc3ccccc3c(=O)n2-c2ccccc2)c1 (stereo not shown)
6. COc1cc(C[S+]([O-])c2nc3ccc(C)cc3c(=O)n2-c2ccccc2)ncc1C (stereo not shown)

Key:
1: 39; 2: 69; 3: 55; 4: 77; 5: 68; 6: 59
